All figures here come from the Human Domainome abundance scans (Beltran et al. 2025).

B1: Chromodomain-helicase-DNA-binding protein 3, residues 374 to 426; numbered along this chain, Q12873 (parent)
chain: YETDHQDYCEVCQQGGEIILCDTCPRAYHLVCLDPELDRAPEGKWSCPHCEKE

- Variants of: B1
- test.details: abundance fitness (aPCA) (normalised: wild type 0, dead -1); higher = more abundant; growth selection in yeast, the domain comes from the species named
- study.conditions: Homo sapiens
Binary classification by abundance fitness, with -0.2 as an inclusive lower bound for yes (1); all other cases are no (0).

Here's what some known entries look like.
L20I :: yes (1)
L37Y :: yes (1)

Please tell me: is the variant C32F at or over -0.2 in terms of abundance fitness?
no (0)

Please tell me: is the variant D38F at or over -0.2 in terms of abundance fitness?
yes (1)
